Assay: NFkB reporter suppression in cystic fibrosis bronchial cells – cell-based, uHTS hits, panel, cytotoxicity readout, dose response (AID 624344)
Condition Parameters: CF bronchial epithelial cells, PAF-induced NFkB reporter inhibition; with PAF, mean of runs
Activity calls are given as the source filed them. How the calls were made is not given here.
Please answer using one outcome listed in active, inactive

Look over these answered cases.
**Q:** Hi, sorry to bother you, what did the test record for C=CC[C@@H](CC/C=C/C=C/CC/C=C\[C@@H]1CSC([C@@H]2C[C@@H]2C)=N1)OC ?
**A:** inactive

**Q:** For CN(C)C(=O)c1cccc(-c2cnc3sc(NCc4ccc5c(c4)OCO5)nn23)c1 then?
**A:** active

**Q:** For CCCc1nc(Cl)c(C#N)c2c1CCCC2 then?
**A:** active

Pending molecule:
**Q:** Hi, sorry to bother you, what did the test record for CC(=O)c1cccc(NC(=O)Nc2cccnc2)c1 ?
**A:** active

###

# IC50 values compiled below
Assay: NFkB reporter suppression in cystic fibrosis bronchial cells – cell-based, uHTS hits, panel, cytotoxicity readout, dose response (AID 624344)
Condition Parameters: CF bronchial epithelial cells, PAF-induced NFkB reporter inhibition; with PAF, mean of runs

**Q:** Requested read-out: IC50. Entry: COc1ccc2cc3c(N)nn(C(=O)c4ccccc4[N+](=O)[O-])c3nc2c1
**A:** 0.54 µM

**Q:** For Cc1csc(CNc2ncnc3ccc(-c4ccoc4)cc23)c1 then?
**A:** < 0.3 µM

**Q:** For O=S(=O)(Nc1nc2ccccc2nc1N1CCN(c2ccccc2F)CC1)c1ccc(Cl)cc1 then?
**A:** 5.66 µM

**Q:** For O=[N+]([O-])c1ccc(Oc2ccc(F)cc2)c2ccncc12 then?
**A:** 1.82 µM

**Q:** For C[C@@H]1CC=C[C@H]2[C@H]1C(=O)N(Cc1ccccc1)[C@H]2c1ccc2ccccc2c1Br then?
**A:** 5.04 µM

Continue with the next compound.
**Q:** Requested read-out: IC50. Entry: COc1ccc2nc(Nc3nc(CSc4nc5ccccc5[nH]4)cc(=O)[nH]3)nc(C)c2c1
**A:** 5.97 µM

###

Assay: NFkB reporter suppression in cystic fibrosis bronchial cells – cell-based, uHTS hits, panel, cytotoxicity readout, dose response (AID 624344)
Condition Parameters: CF bronchial epithelial cells, PAF-induced NFkB reporter inhibition; with PAF, mean of runs
Quantity: pIC50
Formally, pIC50 is defined as -log10 of the concentration c, with c in mol/L.

**Q:** Requested read-out: pIC50. Entry: CC(C)Nc1ncnc2ccc(Br)cc12
**A:** 6.15

**Q:** For O=C1C(=Cc2ccccc2[N+](=O)[O-])Cc2ccccc21 then?
**A:** 5.20

Next:
**Q:** Requested read-out: pIC50. Entry: CCOc1cccc(-c2nnc3sc(C4CCCCC4)nn23)c1
**A:** 5.54

**Q:** For COc1ccccc1/C=C/C(=O)c1c2c(c(C)[nH]c1=O)CCCC2 then?
**A:** 5.53

**Q:** For COc1ccc2[nH]c(=O)c(CN(Cc3cccnc3)S(=O)(=O)c3ccccc3F)cc2c1 then?
**A:** 5.68

**Q:** For CC(=O)Nc1nc(C)c(-c2csc(Nc3cccc(C(C)=O)c3)n2)s1 then?
**A:** 6.27

**Q:** For ON=C1c2ccccc2-c2ccccc21 then?
**A:** 4.71

**Q:** For COc1ccc(C2CNC(=O)C2)cc1OC1CCCC1 (centres undefined) then?
**A:** 4.95

###

Assay: NFkB reporter suppression in cystic fibrosis bronchial cells – cell-based, uHTS hits, panel, cytotoxicity readout, dose response (AID 624344)
Condition Parameters: CF bronchial epithelial cells, PAF-induced NFkB reporter inhibition; with PAF, mean of runs
Activity calls are given as the source filed them. How the calls were made is not given here.
Quantity: IC50

The following compounds have reported results that may help.
**Q:** Requested read-out: IC50. Entry: c1nc(NCc2ccc3c(c2)OCO3)c2cc(-c3ccoc3)ccc2n1
**A:** 0.34 µM

**Q:** For CCOC(=O)C1=C(C)Nc2ccccc2N=C1NC(=O)c1oc2ccccc2c1COC then?
**A:** 4.25 µM

**Q:** For O=[N+]([O-])c1ccc(O)c(C2CCCCC2)c1 then?
**A:** 2.04 µM

**Q:** For COc1cc(C2c3cc4c(cc3C3OC(=O)C2C3CO)OCO4)cc(OC)c1OC (centres undefined) then?
**A:** inactive

**Q:** For COc1ccc(-c2csc3ncnc(NCCN4CCOCC4)c23)cc1 then?
**A:** 3.79 µM

Next:
**Q:** Requested read-out: IC50. Entry: Cc1c(C(=O)OC2CCCC2)[nH]c2c1C(=O)CC(c1ccco1)C2 (centres undefined)
**A:** inactive

**Q:** For Cc1ccc(NC(=O)c2nc[nH]c2C(=O)NCCCNC(=O)c2[nH]cnc2C(=O)Nc2ccc(C)cc2)cc1 then?
**A:** 3.82 µM

###

Assay: NFkB reporter suppression in cystic fibrosis bronchial cells – cell-based, uHTS hits, panel, cytotoxicity readout, dose response (AID 624344)
Condition Parameters: CF bronchial epithelial cells, PAF-induced NFkB reporter inhibition; with PAF, mean of runs
# pIC50 values compiled below
Formally, pIC50 is defined as -log10 of the concentration c, with c in mol/L.

The following molecules have reported results that may help.
**Q:** Requested read-out: pIC50. Entry: CC(C)C[C@@H](CN1CCCC1CN1C(=S)NC[C@@H]1Cc1ccc(O)cc1)N1C[C@H](Cc2ccc(O)cc2)N(CC2CCCCC2)C1=S (stereo not given in full)
**A:** 5.04

**Q:** For CCn1c(=O)c2c(cnn2C)c2ccccc21 then?
**A:** 5.66

**Q:** For C[C@@H](NC(=O)c1coc(=O)c(Br)c1)c1ccccc1 then?
**A:** 5.39

**Q:** For COC(=O)C1=C(C(=O)OC)[C@@H]2N(Cc3ccccc3)c3ccccc3[C@@]23C[C@@H](C(=O)OC)N(C(=O)c2ccc(Br)cc2)C3=N1 then?
**A:** 5.25

**Q:** For FC(F)(F)c1nnc2c(Sc3ccccc3)nc3ccccc3n12 then?
**A:** 5.56

**Q:** For CCCCCCc1cc2cc(C(=O)OCC)c(=O)oc2cc1O then?
**A:** 5.14

**Q:** For CCOc1ccc(NCc2cc3c(C(C)(C)C)nn(-c4ccccc4)c3[nH]c2=O)cc1 then?
**A:** 5.14

**Q:** For Cc1ccc(C(C(=O)NCc2ccccc2)N(Cc2cccs2)C(=O)c2ccc3c(c2)OCCO3)cc1 (stereo not given) then?
**A:** 5.52

**Q:** For CN1CCC(OC(=O)c2cc3cc(Cl)cc(Cl)c3oc2=O)CC1 then?
**A:** 5.79

**Q:** For CCC(=O)c1ccc(O)c(CC=C(C)C)c1 then?
**A:** 5.28

Next:
**Q:** Requested read-out: pIC50. Entry: N#Cc1cccc(NC(=O)COC(=O)c2ccccc2C(=O)c2ccc(Cl)c([N+](=O)[O-])c2)c1
**A:** 5.58

**Q:** For C=CCSc1nsc(NC(=O)Nc2cccc(C(C)=O)c2)n1 then?
**A:** 5.84

**Q:** For CN(C)CCCN(C(=O)CCOc1ccccc1)c1nc2c(F)cccc2s1 then?
**A:** 5.25

**Q:** For O=C(NCCCSc1ccccc1)c1cc(Br)ccc1O then?
**A:** 5.32

**Q:** For COc1ccc2c(c1)[nH]c1c(C)nccc12 then?
**A:** 5.42

**Q:** For Cc1ccc(NC(=O)Nc2nnc(-c3ccncc3)s2)cc1C then?
**A:** 5.46

**Q:** For CCOC(=O)Nc1ccc2c(c1)N(C(=O)CCN(CC)CC)c1ccccc1S2=O (stereo not given) then?
**A:** 5.23

**Q:** For CN1CCN(c2ncnc3scc(-c4ccccc4Cl)c23)CC1 then?
**A:** 5.41

**Q:** For CCCCCCCCCCCCCCC(O)C[N+](C)(CCO)CCO (stereo not given) then?
**A:** 5.34

###

Assay: NFkB reporter suppression in cystic fibrosis bronchial cells – cell-based, uHTS hits, panel, cytotoxicity readout, dose response (AID 624344)
Condition Parameters: CF bronchial epithelial cells, PAF-induced NFkB reporter inhibition; with PAF, mean of runs
Quantity: IC50

**Q:** Requested read-out: IC50. Entry: C[C@H](O)[C@@H]1CN2CCc3c([nH]c4ccc(-c5ccc6c(c5)OCO6)cc34)[C@@H]2C[C@@H]1N(C)C(=O)Nc1ccc(F)cc1
**A:** 9.85 µM

Next:
**Q:** Requested read-out: IC50. Entry: Nc1ncc(-c2ccccc2)c(-c2ccc(O)cc2O)n1
**A:** 4.01 µM

**Q:** For COc1cccc(OC)c1C(=O)Nc1cc(C)nn1-c1nc2ccccc2[nH]1 then?
**A:** 3.77 µM

**Q:** For CC(C)n1c(SCc2ccccc2F)nc2c1c(=O)n(C)c(=O)n2C then?
**A:** 7.01 µM

**Q:** For CCCN(CCC)c1ncnc2nc[nH]c12 then?
**A:** 1.32 µM

**Q:** For N#Cc1c(-c2ccc(Cl)cc2)n(O)c2ccccc12 then?
**A:** 2.85 µM
